Assignment: determine reported melting point for the given compounds.

Dear colleague, could you send me melting point for each of the items below? Thanks.
1. O=c1cc2c(nn1Cc1ccc(Cl)cc1)-c1ccccc1S(=O)(=O)CC2
2. CC(C)(C)OC(=O)N1CCC(C#N)(c2ccccc2Cl)CC1
3. N=C(NCCN1CCC(Nc2nc3ccccc3n2Cc2ccc(F)cc2)CC1)N[N+](=O)[O-]

Result:
1: 238 to 239 °C; 2: 165 to 166 °C; 3: 147 °C

Dear colleague, could you send me melting point for each of the items below? Thanks.
1. COC(=O)c1ccc(COc2ccc3c(c2)CCN(C2CCN(C4CCC4)CC2)C3=O)cc1
2. CC(=O)CSC1=CC(=O)CC(c2ccccc2Cl)C1 (stereo not given)

Result:
165 to 166 °C
81 to 82 °C

Dear colleague, could you send me melting point for each of the items below? Thanks.
1. O=C1C=C(NC(=O)C(=O)c2cn(Cc3c(F)cccc3Cl)c3ccccc23)CO1
2. C=Cc1ccc(Cc2ccc(C=C)cc2)cc1
3. Cc1ccc(Sc2c(O)c3ccc(Cl)cc3[nH]c2=O)cc1
4. CCSc1c(C=NOCc2ccccc2)c(=O)n(C)c(=O)n1C
5. Cc1ccc2ccc(C#N)cc2c1

Result:
> 270 °C
30 to 33 °C
245 to 246 °C
76 °C
134 to 136 °C
